// data source = the supplement of paper PMC10567573

Recorded protein stability index values for a group of variants are listed next.
B1: CCDC89 (parent)
chain: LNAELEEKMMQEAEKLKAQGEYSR

# Variants of: B1
# procedure details: protein stability index of a GFP-peptide fusion (GPS, HEK-293T) (PSI 1-6); higher = more stable;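 note: lentivirally expressed fusions sorted by FACS into six bins by GFP to DsRed ratio, PSI derived from sequencing read proportions per bin multiplied by bin number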
# stated conditions: c terminus: a fixed tail appended

construct sequence: LNAELEEKMMQEAEKLKAQGEYQR [S23Q]
protein stability index: 5.04
--
construct sequence: LNAELEEKMWQEAEKLKAQGEYSR [M10W]
protein stability index: 4.7
--
construct sequence: LNGELEEKMMQEAEKLKAQGEYSR [A3G]
protein stability index: 3.57
--
construct sequence: LNAELEEKMMQEAEKLKQQGEYSR [A18Q]
protein stability index: 5.3
--
construct sequence: LNAELEEKTMQEAEKLKAQGEYSR [M9T]
protein stability index: 5.23
--
construct sequence: LNAELEEKMMQEAEKLKNQGEYSR [A18N]
protein stability index: 5.09
--
construct sequence: LNPELEEKMMQEAEKLKAQGEYSR [A3P]
protein stability index: 4.76
--
construct sequence: LNAELEEKMMQEAEKLWAQGEYSR [K17W]
protein stability index: 3.79
--
construct sequence: LNAELEEKMMQEAGKLKAQGEYSR [E14G]
protein stability index: 3.59
--
construct sequence: NNAELEEKMMQEAEKLKAQGEYSR [L1N]
protein stability index: 4.97
--
construct sequence: LMAELEEKMMQEAEKLKAQGEYSR [N2M]
protein stability index: 4.99
--
construct sequence: LNAELEEKMMQEAEKLKAQGEYSA [R24A]
protein stability index: 5.49
--
construct sequence: LNAEPEEKMMQEAEKLKAQGEYSR [L5P]
protein stability index: 5.58
--
construct sequence: LNAELEEKMMQEAEKLKAFGEYSR [Q19F]
protein stability index: 3.64
--
construct sequence: LNAELEEKMMQEAEKLKAGGEYSR [Q19G]
protein stability index: 4.95
--
construct sequence: LNAELEEKMMQEAFKLKAQGEYSR [E14F]
protein stability index: 4.05
--
construct sequence: LNAELEQKMMQEAEKLKAQGEYSR [E7Q]
protein stability index: 4.18
--
construct sequence: LNAELEEKMMQEAEKSKAQGEYSR [L16S]
protein stability index: 5.76
--
construct sequence: LNAEIEEKMMQEAEKLKAQGEYSR [L5I]
protein stability index: 4.88
--
construct sequence: LNAELEEKMKQEAEKLKAQGEYSR [M10K]
protein stability index: 5.08
--
construct sequence: FNAELEEKMMQEAEKLKAQGEYSR [L1F]
protein stability index: 5.18
--
construct sequence: LNAELEEKMMQEAEKLKAQGEYIR [S23I]
protein stability index: 4.19
--
construct sequence: LNAELEEKMMQEAEKLKAQGDYSR [E21D]
protein stability index: 4.92
--
construct sequence: LNAELEEKMMQEAEKPKAQGEYSR [L16P]
protein stability index: 5.68
--
construct sequence: LNATLEEKMMQEAEKLKAQGEYSR [E4T]
protein stability index: 4.3
--
construct sequence: LNAELEEKMMQEAEKLKDQGEYSR [A18D]
protein stability index: 4.95
--
construct sequence: LNAELEEKMMQEAEKLKAQGEYSD [R24D]
protein stability index: 5.67
--
construct sequence: LNAELEEKMMQEAEKLKAQGESSR [Y22S]
protein stability index: 5.28
--
construct sequence: LNAELETKMMQEAEKLKAQGEYSR [E7T]
protein stability index: 4.74
--
construct sequence: LNAELEEKMMQEAEKLKAHGEYSR [Q19H]
protein stability index: 4.74
--
construct sequence: LNAELQEKMMQEAEKLKAQGEYSR [E6Q]
protein stability index: 4.65
--
construct sequence: LNAELEEKMMQEAEKLKFQGEYSR [A18F]
protein stability index: 4.28
--
construct sequence: LNAELSEKMMQEAEKLKAQGEYSR [E6S]
protein stability index: 4.96
--
construct sequence: LNAELEEKMMTEAEKLKAQGEYSR [Q11T]
protein stability index: 5.67
--
construct sequence: LNAQLEEKMMQEAEKLKAQGEYSR [E4Q]
protein stability index: 4.76
--
construct sequence: LNAELEEKMMQEAEKLKAQGSYSR [E21S]
protein stability index: 4.39
--
construct sequence: LNAELEEKMMQFAEKLKAQGEYSR [E12F]
protein stability index: 3.56
--
construct sequence: LNAELEEKMMQCAEKLKAQGEYSR [E12C]
protein stability index: 4.38
--
construct sequence: LNAELEEKMMQEAEKLKAQGEYVR [S23V]
protein stability index: 4.43
--
construct sequence: LNAELLEKMMQEAEKLKAQGEYSR [E6L]
protein stability index: 2.68
--
construct sequence: LNAVLEEKMMQEAEKLKAQGEYSR [E4V]
protein stability index: 3.95
--
construct sequence: LDAELEEKMMQEAEKLKAQGEYSR [N2D]
protein stability index: 3.11
--
construct sequence: LNAELEEKMMQEAEKLKAQGEYYR [S23Y]
protein stability index: 4.47
--
construct sequence: LNAELEEKMMQEAEKLRAQGEYSR [K17R]
protein stability index: 4.41
--
construct sequence: LNAELEEKMMQEAEKLKTQGEYSR [A18T]
protein stability index: 5.07
--
construct sequence: LNAELEEVMMQEAEKLKAQGEYSR [K8V]
protein stability index: 4.86
